- Test system: MDA-MB-468 breast
- Procedure Details: NCI-60 one-dose screen, 48 h
- Stated Conditions: 10 µM unless noted
This is part of a sample that, as a whole, favours compounds with a hit. Of some 83,000 tested, about 20% had one in any assay. Active and inactive are the calls of the source. The calls were made as follows: active = growth percent below 10; inactive = the rest.
In this exercise, the only acceptable responses are active, inactive

>  <Molecule>
Cc1ccc(C(O)C2CC2)cc1 (configuration not stated)

>  <Measurement Target>
MDA-MB-468 breast

>  <Label>
inactive

$$$$
>  <Molecule>
CSc1nsc(N)n1

>  <Measurement Target>
MDA-MB-468 breast

>  <Label>
inactive

$$$$
>  <Molecule>
CC(C)c1nn(-c2ccccc2)c(N2CCCCC2)c1/C=N/NC(N)=S

>  <Measurement Target>
MDA-MB-468 breast

>  <Label>
inactive

$$$$

// return assay outcome for CC(=O)N(C)N=Nc1ccc(C)cc1
inactive

// return assay outcome for CC12CCC3C(CCC4CC(O)CCC43C)C1C/C(=C/O)C(=O)O2 (configuration not stated)
inactive

// return assay outcome for CNC(=O)c1c(NC(=O)c2ccc(C(C)C)cc2)sc2c1CCC(=O)C2
active

// return assay outcome for O=C(Cc1ccccc1)Nc1cccc(N=Cc2ccccc2O)c1
inactive
